What self-cleavage was measured for each of the following?
B1: Hairpin Ribozyme (parent)
chain: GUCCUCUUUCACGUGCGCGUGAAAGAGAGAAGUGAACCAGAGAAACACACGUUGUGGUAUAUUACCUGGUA

- Variants of: B1
- Protocol text: self-cleavage, relative activity (ratio to wild type); higher = more cleavage; co-transcriptional
Answers are plain numbers.

C10G = 0.737
U5C G29U = 0.114
C38A A44C = 0.108
G34A G54U = 0.719
A24G A35U = 0.645

Take each entry in turn and give its self-cleavage.
1. C3A C37U
2. G17A G42U
3. A36C G57C
4. U62A G69A
5. C4G A28C
6. G25A A43G
7. A23U A26G
8. G25A G57C

Reply:
1. 0.543
2. 0.273
3. 0.17
4. 0.176
5. 0.172
6. 0.133
7. 0.88
8. 0.0684

Take each entry in turn and give its self-cleavage.
1. C16U A64G
2. G15A C46G
3. U7A G29C
4. U7A G57C
5. A11C G56A
6. G13A G69A
7. A31C A41C

Reply:
0.505
0.0897
0.149
0.151
0.15
0.368
0.0332

Take each entry in turn and give its self-cleavage.
1. U7A G69U
2. G21A U60A

Reply:
[0.271, 0.804]
